experiment: Compound solubility in water; assay type: physicochemical
I'd be grateful if you could share measured solubility for these entries.
Give bare numbers, in µg/mL.

As a guide, the following entries are already answered.
* Cc1cnc(-c2cc(C)n3ncc(C(=O)NC(C4CC4)C(F)(F)F)c3n2)o1 (stereo not drawn) | 0.7
* COc1ccncc1-c1cc(C)n2ncc(C(=O)NC(C3CC3)C(F)(F)F)c2n1 (stereo not drawn) | 8.9
* Cc1cc(-c2cncc(Cl)c2)nc2c(C(=O)NC(C)(C)C3CC3)cnn12 | 0.3
* Cc1cc(-c2ccc(F)cc2)nc2c(C(=O)N[C@H](C)C(F)(F)F)cnn12 | 0.7
* Cc1cc(C)n2ncc(C(=O)NC(C)(C)C3CC3)c2n1 | 27.4

Below is a list of molecules. For each, state its recorded solubility.
1. Cc1cc(C)n2ncc(C(=O)N[C@@H](C3CC3)C(F)(F)F)c2n1
2. Cc1cc(NC2CC2)nc2c(C(=O)N[C@@H](C)C3CC3)cnn12
3. Cc1cc(-c2cc(F)ccc2C#N)nc2c(C(=O)N[C@H](C)C(F)(F)F)cnn12
4. Cc1cc(-c2ccncc2)nc2c(C(=O)NC(C)(C)C3CC3)cnn12

13.4
10.9
0.1
6.3
